Where these numbers come from: ChEMBL document CHEMBL1127883

# measured-target: UniProt:Q72874
# assay-summary: Concentration that inhibits cellular growth of MT-4 cells acutely infected with HIV-1 RFstrain by 50%
# Type: functional, cell-based
# condition-context: MT4
Rule for this label: rule met means ED50 is less than 0.03 µM; rule not met means ED50 is at least 0.03 µM.

*Q* Would you kindly verify if ED50 of CC(C)[C@H](COCc1ccccc1)NC(=O)C(F)(F)C(=O)C(Cc1ccc(OCc2ccccc2)cc1)NC(=O)[C@@H](NC(=O)OCc1ccccc1)C(C)C (stereo partly specified) is strictly less than 0.03 µM?
*A* rule met

*Q* In the record for CC(C)C(C=O)NC(=O)C(F)(F)C(=O)C(Cc1ccc(OCc2ccccc2)cc1)NC(=O)[C@@H](NC(=O)OCc1ccccc1)C(C)C (stereo partly specified) , is ED50 less than 0.03 µM?
*A* rule met
